Biological target: Bile acid receptor (Homo sapiens)
Assay: ATG_IR1_CIS: Attagene CIS-FACTORIAL HepG2 Assay for human Nuclear Receptor Subfamily 1 Group H Member 4 (NR1H4), IR1 submotif (AID 2282946)
Conditions: IR1 reporter transcription, actives raise or lower the signal
The source made the active and inactive calls. Rule for the calls: active = hit-call score of the fitted dose curve at least 0.9, where 1 is the maximum; inactive = score below 0.9.
Outcomes: TRUE (active), FALSE (inactive)

# compound, label class
measured = [
    ("CC(=O)C(C)O (stereo not given)", "FALSE"),
    ("CCC1(c2ccccc2)C(=O)NCNC1=O", "FALSE"),
    ("CCN(CC)C(=O)N(CC)CC", "FALSE"),
    ("CC(=O)O[C@@H]1C[C@@H]2CC[C@@]1(C)C2(C)C", "FALSE"),
    ("OCc1cccc(Oc2ccccc2)c1", "FALSE"),
    ("C=Cc1ccncc1", "FALSE"),
    ("CN(C)C(=S)SC(=S)N(C)C", "FALSE"),
    ("CCCCCCCCN1CCCC1=O", "FALSE"),
    ("CCCCCCC(O)CCCCCCCCCCC(=O)O (stereo not given)", "FALSE"),
    ("CC1(C)O[C@@H]2C[C@H]3[C@@H]4CCC5=CC(=O)C=C[C@]5(C)[C@@]4(F)[C@@H](O)C[C@]3(C)[C@]2(C(=O)CO)O1", "FALSE"),
    ("O=C(CS)OCCOC(=O)CS", "FALSE"),
    ("OCc1ccc(Cl)cc1Cl", "FALSE"),
    ("CC1(C)C2=CCCC(C)(C)[C@]23CC[C@H]1C3", "FALSE"),
    ("Cc1ccc(N)c(S(=O)(=O)O)c1", "FALSE"),
    ("Cc1c(OCC(F)(F)F)ccnc1CS(=O)c1nc2ccccc2[nH]1 (stereo not given)", "FALSE"),
    ("CC(C)(C)c1ccc(C(=O)O)cc1", "FALSE"),
    ("CCc1ncc(C)[nH]1", "FALSE"),
    ("CCCC(O)C(O)CO (stereo not given)", "FALSE"),
    ("C=C(C)C(=O)OCCOCCOCCOCCOC(=O)C(=C)C", "FALSE"),
    ("Nc1ccc(N)c2c1C(=O)c1ccccc1C2=O", "FALSE"),
    ("CCOc1ccc(NC(=O)CC(C)O)cc1 (stereo not given)", "FALSE"),
    ("CC(C)C(OC(=O)c1ccccc1)C(C)(C)COC(=O)c1ccccc1 (stereo not given)", "FALSE"),
    ("C[C@H]1O[C@@H](O[C@H]2[C@@H](O)C[C@H](O[C@H]3[C@@H](O)C[C@H](O[C@H]4CC[C@@]5(C)[C@H](CC[C@@H]6[C@@H]5C[C@@H](O)[C@]5(C)[C@@H](C7=CC(=O)OC7)CC[C@]65O)C4)O[C@@H]3C)O[C@@H]2C)C[C@H](O)[C@@H]1O", "TRUE"),
    ("CCC(C)S (stereo not given)", "FALSE"),
    ("CCCCCC(C=O)=Cc1ccccc1", "FALSE"),
    ("CCCCCCCCCCCCCC(=O)OCC(O)CO (stereo not given)", "FALSE"),
    ("Cc1ccc(S(N)(=O)=O)cc1", "FALSE"),
    ("CCCCC(CC)COC(=O)c1ccc(O)cc1 (stereo not given)", "FALSE"),
    ("CCC(C)c1cc([N+](=O)[O-])cc([N+](=O)[O-])c1OC(=O)OC(C)C (stereo not given)", "TRUE"),
    ("CCCCCCCCCC(=O)OC", "FALSE"),
    ("CC(=O)Nc1ccc(C(=O)CCl)cc1", "TRUE"),
    ("COc1cc(CCC(C)=O)ccc1O", "FALSE"),
    ("CC=CC=CCOC(=O)C(C)C", "FALSE"),
    ("CCCCCCOCCOCCO", "FALSE"),
    ("CCNCCO", "FALSE"),
    ("Oc1c(Cl)cc(Cl)c(Cl)c1Cc1c(O)c(Cl)cc(Cl)c1Cl", "FALSE"),
    ("C[C@H]1C[C@@H](O)CC(C)(C)C1", "FALSE"),
    ("COc1cccc(OC)c1O", "FALSE"),
    ("N#Cc1cscn1", "FALSE"),
    ("CN(C)CCOC(C)(c1ccccc1)c1ccccn1 (stereo not given)", "FALSE"),
]

###

Biological target: Bile acid receptor (Homo sapiens) (UniProt Q96RI1)
Sequence (Q96RI1 whole entry, looked up): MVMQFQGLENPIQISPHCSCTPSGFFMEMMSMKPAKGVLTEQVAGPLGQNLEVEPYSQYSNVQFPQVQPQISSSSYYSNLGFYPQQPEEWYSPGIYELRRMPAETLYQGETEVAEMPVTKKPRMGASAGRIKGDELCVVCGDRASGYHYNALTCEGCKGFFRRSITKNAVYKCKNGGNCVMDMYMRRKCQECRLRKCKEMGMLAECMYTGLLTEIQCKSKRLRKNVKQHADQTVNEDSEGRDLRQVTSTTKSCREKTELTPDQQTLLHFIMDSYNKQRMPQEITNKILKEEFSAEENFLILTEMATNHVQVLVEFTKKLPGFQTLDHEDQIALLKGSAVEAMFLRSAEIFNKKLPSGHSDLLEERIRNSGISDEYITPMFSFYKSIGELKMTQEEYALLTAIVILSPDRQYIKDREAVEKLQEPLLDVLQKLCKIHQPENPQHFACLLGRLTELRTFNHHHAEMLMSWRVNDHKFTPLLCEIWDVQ
Experiment: ATG_FXR_TRANS: Attagene TRANS-FACTORIAL HepG2 Assay for Farnesoid X Receptor (FXR) (AID 2282979);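 note: hits raise reporter mRNA above DMSO so AC50 marks FXR activation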
Conditions: HepG2 Attagene TRANS FXR-GAL4 reporter transcription
Inconclusive results are not listed. Active and inactive are the calls of the source. How the source made its calls: active means hit-call score of the fitted dose curve at least 0.9, where 1 is the maximum; inconclusive means response in the unintended direction; inactive means score below 0.9.
Possible outcomes: t = active, f = inactive

# compound, label class
rows = [
    ("CC(C)(C)OC(=O)c1ccc(O)cc1", "f"),
    ("COc1ccccc1[N+](=O)[O-]", "f"),
    ("CCCOCCO", "f"),
    ("CC=Cc1ccc(OC)c(OC)c1", "f"),
    ("CC(=O)CC(=O)Nc1ccccc1", "f"),
    ("COS(=O)(=O)O", "f"),
    ("CCCCN(CCCC)C(=O)N(CCCC)CCCC", "t"),
    ("CN(C)C(=S)SC(=S)N(C)C", "f"),
    ("Nc1ccccc1[N+](=O)[O-]", "f"),
    ("CC1C2CC(CC2C2CCCC(O)C2)C1(C)C (stereo unspecified)", "t"),
    ("CCOC(=O)CC(C)O (stereo unspecified)", "f"),
    ("C=CC(C)C#N (stereo unspecified)", "f"),
    ("CC(=O)O[C@@H]1C[C@@H]2CC[C@@]1(C)C2(C)C", "f"),
    ("COc1ccc(COC(C)=O)cc1", "f"),
    ("OCCOCCN1CCN(C2=Nc3ccccc3Sc3ccccc32)CC1", "f"),
    ("CN(C)CCOC(C)(c1ccccc1)c1ccccn1 (stereo unspecified)", "f"),
    ("CCCC[P+](CCCC)(CCCC)CCCC", "f"),
    ("CC(=O)O[C@@H]1CC2CCC1(C)C2(C)C (stereo partly specified)", "f"),
    ("CCCCCCCCCCCCN1CCCCCC1=O", "f"),
    ("CCCCOC(=O)CCCCCCCC(=O)OCCCC", "f"),
    ("C=COCCOCCOC=C", "f"),
]

###

Experiment: TOX21_p53_BLA_p4_viability: Viability Assessment in the Tox21 HCT-116 p53 Agonism Beta-lactamase Assay, Phase 4 (AID 2283597);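 note: hits lower the luminescence signal meaning cytotoxicity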
Results filed as inconclusive are left out. Calls of active or inactive are those of the source. How the source made its calls: active means hit-call score of the fitted dose curve at least 0.9, where 1 is the maximum; inconclusive means response in the unintended direction; inactive means score below 0.9.

# compound, outcome
records = [
    ("CCCC[O][Al]([O]CCCC)[O]CCCC", "inactive"),
    ("COC(=O)Nc1ccc(Cl)c(Cl)c1", "inactive"),
    ("CC(C)C(OC(=O)c1ccccc1)C(C)(C)COC(=O)c1ccccc1 (stereo not drawn)", "inactive"),
]

###

Read-out: Collagen III, COL3A1 (gene 1281)
Assay: BSK_hDFCGF_CollagenIII: BioMAP Diversity Plus: hDFCGF Assay for Collagen III Biomarker Activity (AID 2283056)
Conditions: primary human foreskin fibroblasts; actives raise or lower the signal
Activity calls are given as the source filed them. How the source made its calls: active means hit-call score of the fitted dose curve at least 0.9, where 1 is the maximum; inactive means score below 0.9.
Outcome codes: active, inactive

# molecule, label class
rows = [
    ("COc1cc(Cl)c(OC)cc1N", "inactive"),
    ("c1ccc(Oc2ccccc2)cc1", "inactive"),
    ("O=C(Nc1ccc2c(O)c(N=Nc3ccc(N=Nc4ccc(S(=O)(=O)O)cc4)cc3)c(S(=O)(=O)O)cc2c1)c1ccccc1", "inactive"),
    ("C=C(C)C(=O)OCCOCCOCCOC(=O)C(=C)C", "inactive"),
    ("IC(I)I", "inactive"),
    ("CCCCN(CCCC)C(=O)N(CCCC)CCCC", "active"),
    ("CC1(C)C2=CCCC(C)(C)[C@]23CC[C@H]1C3", "active"),
    ("CS(=O)(=O)OCCCCOS(C)(=O)=O", "inactive"),
    ("C=C(C)C(=O)OCC(CC)(COC(=O)C(=C)C)COC(=O)C(=C)C", "inactive"),
    ("CCCCCC(C=O)=Cc1ccccc1", "active"),
    ("Oc1c(Cl)cc(Cl)c(Cl)c1Cc1c(O)c(Cl)cc(Cl)c1Cl", "active"),
    ("CC(=O)c1c(C)c([N+](=O)[O-])c(C(C)(C)C)c([N+](=O)[O-])c1C", "inactive"),
    ("CC(C)(N=C=O)c1cccc(C(C)(C)N=C=O)c1", "inactive"),
    ("O=C1c2ccccc2C(=O)c2c(O)ccc(O)c21", "inactive"),
    ("C[C@@H]1CCN(C(=O)[C@H](CCCN=C(N)N)NS(=O)(=O)c2cccc3c2NC[C@H](C)C3)[C@@H](C(=O)O)C1", "inactive"),
    ("c1ccc2cc(Nc3ccc(Nc4ccc5ccccc5c4)cc3)ccc2c1", "inactive"),
    ("COc1ccc(OC)c(N=Nc2c(O)ccc3ccccc23)c1", "active"),
    ("CC(C=O)Cc1ccc(C(C)(C)C)cc1 (configuration not stated)", "inactive"),
    ("CN(C)C(=S)SC(=S)N(C)C", "active"),
    ("C1=CC2C3C=CC(C3)C2C1 (configuration not stated)", "inactive"),
    ("CCN(CC)C(=O)N(CC)CC", "inactive"),
    ("O=C1OC2(c3ccccc31)c1ccc(O)c(Br)c1Oc1c2ccc(O)c1Br", "inactive"),
    ("CCCCCCCCCCCCCCCC(=O)OC/C=C(C)/C=C/C=C(C)/C=C/C1=C(C)CCCC1(C)C", "active"),
    ("CC(C)(C)CC(C)(C)c1ccc(OCCOCC[N+](C)(C)Cc2ccccc2)cc1", "active"),
    ("CCC(C)c1cc([N+](=O)[O-])cc([N+](=O)[O-])c1OC(=O)OC(C)C (configuration not stated)", "active"),
    ("CN(c1nccc(=O)[nH]1)C1CCN(c2nc3ccccc3n2Cc2ccc(F)cc2)CC1", "inactive"),
    ("Clc1cc(Cl)c(-c2c(Cl)c(Cl)cc(Cl)c2Cl)cc1Cl", "active"),
]
